Provenance of the data: patent US8426447B2

Molecular target: BACE1 (Homo sapiens, UniProt P56817)
Sequence (P56817 46-501, species assumed): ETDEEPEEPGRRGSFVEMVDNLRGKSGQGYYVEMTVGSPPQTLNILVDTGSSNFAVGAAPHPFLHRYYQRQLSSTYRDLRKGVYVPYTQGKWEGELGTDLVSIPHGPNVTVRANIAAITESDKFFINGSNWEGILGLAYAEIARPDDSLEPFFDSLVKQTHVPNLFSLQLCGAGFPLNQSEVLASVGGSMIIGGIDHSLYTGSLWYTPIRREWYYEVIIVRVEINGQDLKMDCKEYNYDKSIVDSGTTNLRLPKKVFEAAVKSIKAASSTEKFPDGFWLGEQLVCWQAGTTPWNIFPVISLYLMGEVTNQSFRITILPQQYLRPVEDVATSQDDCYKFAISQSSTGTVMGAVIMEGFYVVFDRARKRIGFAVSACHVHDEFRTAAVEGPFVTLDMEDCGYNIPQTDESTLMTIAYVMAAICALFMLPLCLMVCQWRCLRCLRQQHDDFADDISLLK
Test: In Vitro Enzymatic BACE FRET (Fluorescence Resonance Energy Transfer) Assay
Type: biochemical
Details: Table IV, class symbols; read-out: BACE1 FRET assay
Overview of reported IC50 across a group of compounds:

query_smiles=Cc1cnc(F)c(-c2ccc3c(c2)[C@@]2(COC(N)=N2)c2cccnc2O3)c1 outcome_measure=IC50 measurement="100 to 1000 nM"

Problem: Which IC50 value belongs to CC(C)(C)C#Cc1ccc2c(n1)[C@]1(COC(N)=N1)c1cc(-c3cccnc3)ccc1O2 ?
Solution: < 100 nM

Problem: Which IC50 value belongs to NC1=N[C@@]2(CO1)c1cc(-c3cncnc3)ccc1Oc1ccc(-c3cccc(C(F)(F)F)c3)cc12 ?
Solution: < 100 nM

Problem: Which IC50 value belongs to CC(C)(C)C#Cc1cnc2c(c1)[C@]1(COC(N)=N1)c1cc(-c3ccnnc3)ccc1O2 ?
Solution: < 100 nM

Problem: Which IC50 value belongs to COc1cc(F)c2c(c1)[C@]1(COC(N)=N1)c1cc(-c3cncnc3)ccc1O2 ?
Solution: < 100 nM

Problem: Which IC50 value belongs to NC1=N[C@]2(CO1)c1cc(-c3cccnc3)ccc1Oc1c(F)cc(C3=CCOCC3)cc12 ?
Solution: 100 to 1000 nM

Problem: Which IC50 value belongs to Cc1ccc(-c2cnc3c(c2)[C@]2(COC(N)=N2)c2cc(C#CC(C)(C)O)ccc2O3)cc1 ?
Solution: < 100 nM

Problem: Which IC50 value belongs to Cn1cc(-c2ccc3c(c2)[C@]2(COC(N)=N2)c2cc(Br)ccc2O3)cn1 ?
Solution: 100 to 1000 nM

Problem: Which IC50 value belongs to CC(C)(C)COc1ccc2c(c1)[C@]1(COC(N)=N1)c1cc(CO)ccc1O2 ?
Solution: 1000 to 5000 nM

Problem: Which IC50 value belongs to CC(C)(C)C#Cc1ccc2c(c1)[C@]1(COC(N)=N1)c1cc(Cl)ncc1O2 ?
Solution: 1000 to 5000 nM

Problem: Which IC50 value belongs to NC1=N[C@]2(CO1)c1cc(Br)ccc1Oc1ccc(Cl)nc12 ?
Solution: > 5000 nM

Problem: Which IC50 value belongs to Cc1ccc(-n2ccc3c(c2=O)[C@@]2(COC(N)=N2)c2cc(-c4cccnc4)ccc2O3)cc1 ?
Solution: 100 to 1000 nM

Problem: Which IC50 value belongs to CC(C)Cc1cc2c3c(ccc2o1)Oc1ncc(-c2cncnc2)cc1[C@]31COC(N)=N1 ?
Solution: 100 to 1000 nM

Problem: Which IC50 value belongs to NC1=N[C@@]2(CO1)c1cc(-c3cccnc3)ccc1Oc1c(F)cccc12 ?
Solution: < 100 nM

Problem: Which IC50 value belongs to CC(C)(C)COc1ccc2c(c1)[C@@]1(COC(N)=N1)c1cc(-c3ccc(F)nc3)cnc1O2 ?
Solution: < 100 nM

Problem: Which IC50 value belongs to CC(=O)c1cc(-c2ccc3c(c2)[C@@]2(COC(N)=N2)c2cc(OCC(C)(C)C)ccc2O3)cs1 ?
Solution: 1000 to 5000 nM
